# assay.protocol: AUC in dog at 30 mg/kg/day, po QD for 4 days
# Type: ADME, organism-based, Canis lupus familiaris
# Parameters: dose 30 mg/kg/day, time 4 day, route po
# setup.conditions: in vivo

- chem.smiles: "CC(C)(O)[C@H]1CC[C@H](NC(=O)c2cnc3nc(C4CC4)ccc3c2)CC1"
  unit.spec: "µg·h/mL"
  AUC at 96 h: 430

* * *

# experimental.target: UniProt O35543
# Sequence (O35543 whole entry): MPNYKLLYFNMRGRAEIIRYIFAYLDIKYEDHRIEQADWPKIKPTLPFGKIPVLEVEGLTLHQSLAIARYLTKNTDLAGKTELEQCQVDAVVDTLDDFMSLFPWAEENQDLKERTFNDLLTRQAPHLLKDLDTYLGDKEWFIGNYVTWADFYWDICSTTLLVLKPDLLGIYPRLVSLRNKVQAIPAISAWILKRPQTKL
# assay.protocol: Inhibition of H-PGDS in rat RBL cells assessed as reduction in A23187-induced PGD2 production pretreated for 30 mins followed by A23187 addition for 30 mins by RapidFire Mass spectrometry
# Assay type: cell-based
# setup.conditions: rbl
pEC50: −log10 of the molar value.

- compound: "CC(C)(O)C1CC2(CC(NC(=O)c3cnc4nc(C5CC5)ccc4c3)C2)C1 (stereo unspecified)"
  experimental.target: "UniProt O35543"
  pEC50: 7.54
